Hey, just so you know, these numbers are from the supplement of paper PMC10567573.

B1: NP_009172.2 (parent)
chain: LPALFTDLYSQEITAEEAREALP

# Variants of: B1
# test_name: protein stability index of a GFP-peptide fusion (GPS, HEK-293T) (PSI 1-6); higher = more stable;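 also: lentivirally expressed fusion library, cells FACS-sorted into six equal-sized GFP/DsRed ratio bins, PSI computed from sequencing read fractions per bin weighted by bin number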
# particulars: c terminus: native
quantity_kind: protein stability index
// response body must contain only the number

A18Y 2.35
L8Q 2.91
E12W 2.21

Pending variant:
Exam item: Which protein stability index value is on record for L8V ?
Marked response: 2.81
